Reported TGI values follow for various compounds
system: PC-3 prostate; experiment: NCI tumour cell line growth inhibition, 48 h

CC(=O)N1c2ccccc2Sc2cc(C(O)(C(F)(F)F)C(F)(F)F)ccc21; > 10 µM

input: PC-3 prostate / TGI / O=S(=O)(O)c1c(N=Nc2c(O)ccc3ccccc23)ccc2ccccc12 : value?
output: > 100 µM

input: TGI of O=S1(=O)CCN(Cc2ccccc2)/C1=N\S(=O)(=O)c1ccc(Cl)cc1 on PC-3 prostate?
output: 36.7 µM

input: What reported TGI corresponds to COC(=O)[C@H](Cc1ccccc1)NC(=O)N1CCN(C(=O)N[C@@H](Cc2ccccc2)C(=O)OC)CCN(C(=O)N[C@@H](Cc2ccccc2)C(=O)OC)CC1 on PC-3 prostate?
output: > 100 µM

input: Enter reported TGI observed with PC-3 prostate for S=C(Nc1ccc(Cl)cc1)Nc1ccc(Cl)cc1 (tested in a mixture with another compound)
output: 6.59 µM

input: # query: TGI | item CN(C)c1ccc2c3c(c(=O)oc2c1)CCC3 | system: PC-3 prostate
output: > 100 µM

input: So what TGI did COc1ccc(-c2cn[nH]c2-c2cc(OC)c(OC)c(OC)c2)cc1N get with PC-3 prostate?
output: > 100 µM

input: Recall the recorded TGI for CCOC(=O)CCC(NC(=O)c1ccc(Nc2nc3cc(C(F)(F)F)ccc3nc2-c2ccccc2)cc1)C(=O)OCC (stereo not given) with PC-3 prostate and state it.
output: > 100 µM

input: Form entry - test system: PC-3 prostate; read-out: TGI; compound: CN(C)CCO/N=C1/C=C2CC[C@H]3[C@@H]4CC[C@H](O)[C@@]4(C)CC[C@@H]3[C@@]2(C)CC1
output: > 100 µM

input: What measured TGI is associated with C=C[C@H]1CN2CCc3c([nH]c4c([C@H]5CCCN5C)c(O)ccc34)[C@@H]2C[C@@H]1C[C@H]1c2[nH]c3ccccc3c2CCN1C on PC-3 prostate?
output: 3.11 µM
